Each item that follows carries a reported Kd.
# system: biotinylated human DLL3 protein expressed as a human IgG1 fusion protein (human) (UniProt Q9NYJ7)
# Sequence (Q9NYJ7 27-492): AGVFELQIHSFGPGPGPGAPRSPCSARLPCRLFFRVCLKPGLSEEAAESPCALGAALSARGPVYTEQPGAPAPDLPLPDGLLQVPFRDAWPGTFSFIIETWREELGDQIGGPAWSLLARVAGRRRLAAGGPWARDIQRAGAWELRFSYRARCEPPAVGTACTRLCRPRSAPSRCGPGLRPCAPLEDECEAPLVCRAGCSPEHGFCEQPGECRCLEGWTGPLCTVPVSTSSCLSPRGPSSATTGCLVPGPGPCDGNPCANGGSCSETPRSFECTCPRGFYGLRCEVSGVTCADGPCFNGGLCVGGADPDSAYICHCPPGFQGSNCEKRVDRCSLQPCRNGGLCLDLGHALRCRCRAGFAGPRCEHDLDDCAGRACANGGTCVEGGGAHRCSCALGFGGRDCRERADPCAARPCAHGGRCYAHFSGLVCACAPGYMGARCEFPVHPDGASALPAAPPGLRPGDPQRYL
# measurement_description: Octet, biotinylated human DLL3-IgG1 fusion on streptavidin tips, single 50 nM, conditioned medium (relative KD)
Note: unit nM is implicit; provide only the numeric part.

Here is how some binders turned out for Kd.
| binder | unit_label | experimental_value |
| --- | --- | --- |
| anti-DLL3 trispecific protein, DLL3 binder 3E09 (protein, part only; not given: CD3 binder and albumin binder, part only) chain, part: EVQLVESGGGLVQPGGSLTLSCAASGSSVRFLSMAWYRQAPGKKRELVAGISRDGSTDYIDSVKGRFTISRDNAKNSVYLQMNSLRAEDTAVYYCYAYRWSTRYTYWGQGTLVTVSSGGGGSGGGSGGGGSGGGSHHHHHH | nM | 10 |
| anti-DLL3 trispecific protein, DLL3 binder 1F08 (protein, part only; not given: anti-CD3 fragment and anti-albumin sdAb, part only) chain, part: EVQLVESGGGLVQPGGSLTLSCVASGSTSSINAMAWYRRAPGKQRELVAGISSDGSKVYKDSVKGRFTISRDNAKNSVYLQMNSLRAEDTAVYYCYYFRNVSGSSMRYWGQGTLVTVSSGGGGSGGGSGGGGSGGGSHHHHHH | nM | 31 |
| anti-DLL3 trispecific protein, DLL3 binder 3D09 (protein, part only; not given: anti-CD3 fragment and anti-albumin domain, part only) chain, part: EVQLVESGGGLVQPGGSLTLSCAASGSSVSRLSMAWYRQAPGKKRELVAGISANGSTTYIDSVKGRFTISRDNAKNSVYLQMNSLRAEDTAVYYCYAYRWTTRYRYWGQGTLVTVSSGGGGSGGGSGGGGSGGGSHHHHHH | nM | 32 |

Prompt: State, in one line, measured Kd of anti-DLL3 trispecific protein, DLL3 binder 3B02 (protein, part only; not given: CD3 fragment and albumin sdAb, part only) chain, part: EVQLVESGGGLVQPGGSLTLSCAASGSSVQFLSMAWYRQAPGKKRELVAGISADGSTDYINSVKGRFTISRDNAKNSVYLQMNSLRAEDTAVYYCYAYRWRTRYTYWGQGTLVTVSSGGGGSGGGSGGGGSGGGSHHHHHH
Completion: 12

Prompt: Please report the measured Kd for anti-DLL3 trispecific protein, DLL3 binder 4B04 (protein, part only; not given: anti-CD3 fragment and anti-albumin sdAb, part only) chain, part: EVQLVESGGGLVQPGGSLTLSCAASGSSVLFLSMAWYRQAPGKKRELVAGVSSDGSTDYIDSVKGRFTISRDNAKNSVYLQMNSLRAEDTAVYYCYAYRWRTRYTYWGQGTLVTVSSGGGGSGGGSGGGGSGGGSHHHHHH
Completion: 12

Prompt: Dear colleague, please send me the reported Kd for anti-DLL3 trispecific protein, DLL3 binder 4B01 (protein, part only; not given: anti-CD3 and anti-albumin domains, part only) chain, part: EVQLVESGGGLVQPGGSLTLSCAASGSSVKFLSMAWYRQAPGKKRELVAGISRDGSTDYIDSVKGRFTISRDNAKNSVYLQMNSLRAEDTAVYYCYAYRWTTRFTYWGQGTLVTVSSGGGGSGGGSGGGGSGGGSHHHHHH when you can.
Completion: 11

Prompt: Read off the recorded Kd for anti-DLL3 trispecific protein, DLL3 binder 1B08 (protein, part only; not given: CD3 binder and albumin binder, part only) chain, part: EVQLVESGGGLVQPGGSLTLSCVASGTTSSINAMGWYRRAPGKQRELVAGISSDGSKVYVDSVKGRFTISRDNAKNSVYLQMNSLRAEDTAVYYCYYFRFVSGSSMRYWGQGTLVTVSSGGGGSGGGSGGGGSGGGSHHHHHH
Completion: 12
